Biological target: T1, human CD40 extracellular domain with C-terminal His-AviTag (human, UniProt P25942 21-193)
T1 construct: not shown: C-terminal His-AviTag
T1 sequence (P25942 21-193): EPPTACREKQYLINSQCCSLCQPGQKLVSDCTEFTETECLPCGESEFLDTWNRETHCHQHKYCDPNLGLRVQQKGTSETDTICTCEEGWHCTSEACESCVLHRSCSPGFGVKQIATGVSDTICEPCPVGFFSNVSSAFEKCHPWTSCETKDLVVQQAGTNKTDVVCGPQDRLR
Assay: SPR, antibody captured, CD40 ECD analyte;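 also: biacore SPR at 25 °C in PBS-T pH 7.4, CD40 ECD analyte from 300 nM in 1:3 series, 300 s association, up to 1200 s dissociation, double-referenced, Langmuir 1:1 fit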
experimental_endpoint: kon (M⁻¹ s⁻¹)
Lab book: enter the figure in M⁻¹ s⁻¹, no units written.

[
  {
    "binder": "P1AE1005, humanized anti-CD40 antibody VH1b/VL1d, huIgG1_LALA_PG (antibody, V domains shown, huIgG1 with effector silent Fc (P329G, L234A, L235A)) VH: QVQLVQSGAEVKKPGASVKVSCKASGYSFTGYYIHWVRQAPGKSLEWMGRVIPNAGGTSYNQKFKGRVTLTVDKSISTAYMELSRLRSDDTAVYYCAREGIYWWGQGTTVTVSS VL: DVVVTQTPLSLSVTPGQPASISCRSSQSLVHSNGNTFLHWYLQKPGQSPQLLIYTVSNRFSGVPDRFSGSGSGTDFTLKISRVEAEDVGVYFCSQTTHVPWTFGGGTKLEIK",
    "reported_result": "2.58e+06"
  },
  {
    "binder": "P1AE1001, humanized anti-CD40 antibody VH1a/VL1b, huIgG1_LALA_PG (antibody, V domains shown, huIgG1 with effector silent Fc (P329G, L234A, L235A)) VH: QVQLVQSGAEVKKPGASVKVSCKASGYSFTGYYIHWVRQAPGQSLEWMGRVIPNAGGTSYNQKFKGRVTLTVDKSISTAYMELSRLRSDDTAVYYCAREGIYWWGQGTTVTVSS VL: DIVVTQTPLSLSVTPGQPASISCRSSQSLVHSNGNTFLHWYLQKPGQSPQLLIYTVSNRFSGVPDRFSGSGSGTDFTLKISRVEAEDVGVYFCSQTTHVPWTFGGGTKVEIK",
    "reported_result": "2.56e+06"
  },
  {
    "binder": "P1AE0819, humanized anti-CD40 antibody VH1d/VL1d, huIgG1_LALA_PG (antibody, V domains shown, huIgG1 with effector silent Fc (P329G, L234A, L235A)) VH: QVQLVQSGAEVKKPGASVKVSCKASGYSFTGYYIHWVRQAPGQSLEWMGRVIPNAGGTSYNQKFKGRVTLSVDKSISTAYMELSRLRSDDTAVYYCAREGIYWWGQGTTVTVSS VL: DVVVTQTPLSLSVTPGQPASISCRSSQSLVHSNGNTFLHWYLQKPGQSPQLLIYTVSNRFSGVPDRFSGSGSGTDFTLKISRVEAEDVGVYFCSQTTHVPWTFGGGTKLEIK",
    "reported_result": "2.59e+06"
  }
]

Here is another binder to look at.
q: Return kon for the following binder: P1AE0402, humanized anti-CD40 antibody VH2c/VL2a, huIgG1_LALA_PG (antibody, V domains shown, huIgG1 with effector silent Fc (P329G, L234A, L235A); also called VL2a/VH2c) VH: EVQLLESGGGLVQPGGSLRLSCAASGYSFTGYYIHWVRQAPGKGLEWVGRVIPNAGGTSYNQKFKGRFTISVDNSKNTAYLQMNSLRAEDTAVYYCAREGIYWWGHGTTVTVSS VL: DIQMTQSPSSLSASVGDRVTITCRSSQSLVHSNGNTFLHWYQQKPGKAPKLLIYTVSNRFSGVPSRFSGSGSGTDFTLTISSLQPEDFATYFCSQTTHVPWTFGGGTKVEIK
a: 1.67e+06
